System: TK-10 renal
assay protocol: NCI-60 one-dose screen, 48 h
condition parameters: 10 µM unless noted
Description: Growth inhibition of the TK-10 human tumor cell line is measured as a screen for anti-cancer activity. Cells are grown in 96 well plates and exposed to the test compound for 48 hours. Compounds are tested at a single concentration, which is 10^-5 M for most compounds. The reported endpoint is percent growth (GI% or GIPRCNT), where numbers from 0 - 100% represent growth inhibition, and numbers from -100% - 0 represent cell death. For example, a value of 40 represents 60% growth inhibition. […]
The panel holds about 83,000 compounds, 20% with a hit somewhere; the sample as a whole holds those more often. The source made the active and inactive calls. Rule for the calls: active = growth percent below 10; inactive = the rest.
Hi there, use one of these labels in your reply, thanks! active, inactive

q: Answer briefly: the call reported for `O=C(Nc1ccc(Oc2ccc(F)cc2)c(Cl)c1)c1cnccn1` in this assay.
a: inactive

q: Recorded test call requested for `O=C(O)c1cn(C2CC2)c2cc(N3CCN(Cc4cc(Cl)ccc4O)CC3)c(F)cc2c1=O`
a: inactive

q: Which outcome was assigned to O=C1/C(=C\c2cn(CC(O)CN3CCCCC3)c3ccccc23)c2ccccc2N1c1c(Cl)cccc1Cl (stereo not given) in this test?
a: active

q: I'd appreciate the recorded outcome for `N#C/C(=C(/O)CCCO)c1nc2ccccc2c(=O)[nH]1` from this test.
a: inactive

q: Each molecule tested received a call. Report the one for `C=C(CN=[N+]=[N-])[C@@H]1CC[C@]2(C)[C@H](CC[C@@H]3[C@H]4[C@H]5OC(=O)[C@@]4(CCC5(C)C)CC[C@]32C)[C@@]1(C)CCC#N` .
a: inactive

----------
Test system: TK-10 renal
assay protocol: NCI-60 one-dose screen, 48 h
condition parameters: 10 µM unless noted
About 83,000 compounds went through this panel and 20% of them were active in at least one assay; those are over-represented in the sample as a whole. Active and inactive are the calls of the source. The calls were made as follows: active = growth percent below 10; inactive = the rest.
Could you please pick one outcome from this set? true for active, false for inactive

q: State the result this test recorded for `COc1cc2c(cc1OCCCCCOc1ccc(-n3c(C)nc4ccccc4c3=O)cc1)N=C[C@@H]1CCCN1C2=O` .
a: true

q: What did the test return for `C=C(C)[C@@H]1CC[C@]2(C(=O)NCCNCCNCCN)CC[C@]3(C)[C@H](CC[C@@H]4[C@@]5(C)CC[C@H](O)C(C)(C)[C@@H]5CC[C@]43C)[C@@H]12` ?
a: true

q: Tell me the assay call for `C=C(C)[C@@H]1CC[C@]2(C(N)=O)CC[C@]3(C)[C@H](CC[C@@H]4[C@@]5(C)C/C(=C/c6cccnc6)[C@H](O)C(C)(C)[C@@H]5CC[C@]43C)[C@@H]12` please.
a: false

----------
Tested on: MDA-MB-435 melanoma
assay protocol: NCI-60 one-dose screen, 48 h
condition parameters: 10 µM unless noted
Compounds without any hit were thinned out: in the full panel of roughly 83,000, 20% have a hit. Activity calls are given as the source filed them. The calls were made as follows: active = growth percent below 10; inactive = the rest.
The categories you may choose from are active, inactive

q: Please state the recorded outcome for this compound: `COc1ccc(-c2cc(-c3ccccc3)nc(NCCNc3ccnc4cc(Cl)ccc34)n2)cc1`
a: active

q: Hello, I am checking results. What call was entered for `O=C(Nc1cccc(F)c1)c1cc(=O)[nH]c2cc(Br)ccc12` ?
a: active

q: Assay result, entry `O=C(Nc1ccc(F)cc1)c1ccccc1` — outcome?
a: inactive

q: For `O=C(Nc1ccc(CN2CCOCC2)c(C(F)(F)F)c1)c1nc2ccc3[nH]ncc3c2c2c1CCCC2` , what call appears in the results of this test?
a: inactive

q: Hi team, can someone confirm the assay call for `CC1(C)NCCC[C@]2(C)[C@H]3C=CC4=C5C[C@](C)(CO)CC[C@]5(C)CC[C@@]4(C)[C@]3(C)CC[C@@H]12` ?
a: active

q: What is the recorded call for this compound in the test? `CC(C)=CCC[C@](C)(O)[C@H]1CC[C@]2(C)[C@@H]1CC[C@@H]1[C@@]3(C)CC[C@H](OC(=O)CCC(=O)O)C(C)(C)[C@@H]3CC[C@]12C`
a: active

q: Dear all, I need the recorded test outcome for `COc1cc(C)cc2oc3oc(=N)c(C(=O)c4ccccc4)cc3c(=O)c12` , thank you.
a: inactive

q: I would be grateful if you could indicate the recorded call for `C#C[C@]1(O)CC[C@H]2[C@@H]3CC=C4c5nc(Nc6ccccc6[N+](=O)[O-])sc5CC[C@]4(C)[C@H]3CC[C@@]21C` .
a: inactive

q: Hi, sorry to bother you, what did the test record for `CCc1ccc(C2=C/C(=C/c3ccccc3)C(=O)N2CCc2ccc(S(N)(=O)=O)cc2)cc1` ?
a: inactive

q: Hi, do you know how `CC1(C)[C@@H](NOCCCN)CC[C@]2(C)[C@H]3C(=O)C=C4[C@@H]5C[C@](C)(C(=O)O)CC[C@]5(C)CC[C@@]4(C)[C@]3(C)CC[C@@H]12` came out in this test?
a: active

q: Hi team, can someone confirm the assay call for `CCc1cccc(Cl)c1` ?
a: inactive

q: What did the test return for NC(=O)CC1C=CCC1 (stereo not drawn) ?
a: inactive

q: Any idea what this test logged for `O=C(Nc1cccc2cccnc12)c1cc(C(=O)c2ccc(Cl)cc2)n2ccc(-c3ccncc3)cc12` ?
a: inactive

----------
Give growth for every item shown.
System: NCI-H322M lung
assay protocol: NCI-60 one-dose screen, 48 h (100 = growth as untreated, 0 = no growth, -100 = all killed)
condition parameters: 10 µM unless noted
Compounds without any hit were thinned out: in the full panel of roughly 83,000, 20% have a hit.
// return numeric value only (unit: %, not printed)

q: Given the molecule CC1Cc2c(ncnc2-n2cnc3ccccc32)N(C)c2ccccc21 (centres undefined) , what is its reported growth?
a: 63.7

q: What does the data say about its growth? Entry: `C[C@@H](NC(=O)[C@@H](CC(=O)N1CCC(N2CCCCC2)CC1)N1C(=O)[C@@H](N2C(=O)OC[C@@H]2c2ccccc2)[C@H]1/C=C/c1cccc(Cl)c1)c1ccccc1`
a: 82.1

q: Any idea what its growth is? The molecule is CCOC(=O)C(C(C)=O)c1nc2sc3cc(Cl)c(Cl)cc3n2c(=O)c1C#N (centres undefined)
a: 114

q: Could you share which growth value was measured for `O=C(Nc1ccc(Cl)c(C(F)(F)F)c1)Nc1ccc(-c2cccnc2)cc1N1CCC(CO)CC1` ?
a: 54.8

----------
Test system: SF-268 CNS
assay protocol: NCI-60 one-dose screen, 48 h (100 = growth as untreated, 0 = no growth, -100 = all killed)
condition parameters: 10 µM unless noted
About 83,000 compounds went through this panel and 20% of them were active in at least one assay; those are over-represented in the sample as a whole.
Provide the reported growth of each item.
Field format: number, assumed %, no unit text.

q: For the compound shown here, `O=S(=O)(NCCNc1nccc(-c2c(-c3cccc(F)c3)nc3occn23)n1)c1ccc(C(F)(F)F)cc1` , give the reported growth.
a: 70.4

q: So what does the record say about growth for `COc1cc(/C=C/C(=O)/C=C/c2ccc(-n3ccnc3C)cc2)ccc1O` ?
a: 49.9

q: For the compound shown here, `COc1cc2c(cc1OCCCCCOc1ccc(-n3c(C)nc4ccccc4c3=O)cc1)N=C[C@@H]1CCCN1C2=O` , give the reported growth.
a: -5.47

q: Tell me the measured growth of `Cn1cc(-c2noc(-c3cn(C)c4ncc(F)cc34)n2)c2cc(Cl)ccc21` , please.
a: 69.2

q: Quick check: growth of `O=C(NCCCNC(=O)OCc1ccc2cccc(O)c2n1)OCc1ccc2cccc(O)c2n1` ?
a: 54

q: # get_value(readout='growth', item= CC1(C)OC2[C@@H](CNC(=O)NC(=O)NC(=O)CI)O[C@@H](n3cnc4c(NC(=O)Nc5ccccc5)ncnc43)[C@H]2O1 (stereo partly drawn) )
a: 73.4

q: Fill in: growth of `COc1cc2c(cc1OCCCN1CCN(CCCOc3cc4c(cc3OC)C(=O)N3C[C@H](F)C[C@H]3C=N4)CC1)N=C[C@@H]1C[C@@H](F)CN1C2=O` is ___
a: 9.5

q: Would you kindly share the measured growth for `Clc1ccc(N2CCN(CCCN3CCN(c4cccc(Cl)c4)CC3)CC2)cc1` ?
a: 79.2

----------
Test system: KM12 colon
assay protocol: NCI-60 one-dose screen, 48 h
condition parameters: 10 µM unless noted
The panel holds about 83,000 compounds, 20% with a hit somewhere; the sample as a whole holds those more often. Activity calls are given as the source filed them. Rule for the calls: active = growth percent below 10; inactive = the rest.
Just give me one of these, please: TRUE (active), FALSE (inactive)

q: Lab log entry: `CC(=O)OC[C@]12CC[C@@H]([C@@H](C)C(N)=O)[C@@H]1[C@H]1CC[C@@H]3[C@@]4(C)CC[C@H](OC(C)=O)C(C)(C)[C@@H]4CC[C@@]3(C)[C@]1(C)CC2` — outcome as called in the assay?
a: TRUE

q: Record request — test call for `COc1ncc(-c2ccc3nccc(C#CCCCCC(=O)O)c3c2)cc1NS(=O)(=O)c1ccc(F)cc1F`
a: FALSE

q: // return assay outcome for CCC(C)[C@H](NC(=O)NC(=O)NC(=O)CI)C(=O)OC (stereo partly specified)
a: FALSE

q: Field: outcome | Entry: `CCOC(=O)c1cc(C#N)n2ncc3ccccc3c12`
a: FALSE

q: Answer briefly: the call reported for `Cc1cc(C)c(O)c(CNCCCCCCNCc2cc(C)cc(C)c2O)c1` in this assay.
a: TRUE

q: # outcome recorded in this test, key = `O=C(O)CSCc1nnc2n(Cc3ccccc3)c(=O)c3c4c(sc3n12)CCCC4`
a: FALSE

q: Test call, this molecule: `CCOc1cc(NC(=O)c2ccccc2)c(OCC)cc1N`
a: FALSE

q: Short answer needed: outcome of this test for `CCN=C1C=CC(=C(c2ccc(N(CC)CC)cc2)c2ccc(N(CC)CC)cc2)c2ccccc21` ?
a: TRUE

q: How was CCN(CC)CC(C)Nc1ccc(C)c2sc3ccccc3c(=O)c12 (stereo unspecified) classified in this test?
a: FALSE

q: In this assay, the call recorded for `O=C(Oc1ccc(Cl)cc1[N+](=O)[O-])Oc1ccc(Cl)cc1[N+](=O)[O-]` was what?
a: FALSE

q: What is the recorded call for this molecule in the test? `O=C(CCNCc1ccccc1)c1ccccc1`
a: FALSE

q: # fetch the recorded call for CCCCN(CCCC)CC(O)c1ccc(OCc2ccccc2)c2ccccc12 (stereo unspecified) here
a: FALSE

q: Check the results log: what was the call for `COc1ccc(/C=C2\N=C(Nc3ccccc3)N(NC(=O)c3ccccn3)C2=O)cc1` ?
a: FALSE

q: Recorded test call requested for `CCOC(=O)c1sc2nc(-c3cc(OC)c(OC)c(OC)c3)nc(N3CCOCC3)c2c1C`
a: FALSE

q: Which result was noted for this molecule in the test: `COc1ncc(-c2ccc3nccc(C#CCCCCC(=O)NO)c3c2)cc1NS(=O)(=O)c1ccc(F)cc1F`
a: TRUE

q: Recorded test call requested for `O=C(CCN1CCCCC1)c1ccc(Cl)cc1`
a: FALSE

q: Any idea what this test logged for `CCn1cc(-c2[nH]c(=S)ncc2-c2ccc(Cl)cc2)c(-c2ccc(Br)cc2)n1` ?
a: FALSE

q: # lookup: test call for `C=C(C)[C@@H]1CC[C@]2(C(=O)OC)CC[C@]3(C)[C@H](CC[C@@H]4[C@@](C)(CCc5nn[nH]n5)[C@H](C(=C)C)CC[C@]43C)[C@@H]12`
a: TRUE

q: Assay outcome for `CCOC(=O)COc1ccc2c(c1)O/C(=C\c1ccc(O)cc1)C2=O` : what was it?
a: FALSE

q: How did this test come out for `COc1ccc(OC)c(NC=O)c1` ?
a: FALSE

q: I would be grateful if you could indicate the recorded call for `COc1ccc(C(=O)CSc2nnc(-c3cc(-c4ccccc4)nc4ccccc34)o2)cc1` .
a: FALSE

q: How was `O=C(N/N=C/c1c(Cl)cccc1Cl)c1cccc(Nc2ccnc(C(F)(F)F)c2)c1` classified in this test?
a: FALSE

q: Please state the recorded outcome for this molecule: `COc1cc(NCc2cn(-c3ccc(C(=O)O)cc3)nc2-c2ccc(C(=O)O)cc2)cc(OC)c1OC`
a: FALSE

q: What is the recorded call for this molecule in the test? O=C1CC(c2ccccc2)Cc2nc3ccc(Br)cc3cc21 (stereo unspecified)
a: TRUE

q: # fetch the recorded call for N#Cc1c(Cl)nc(SCC2CO2)nc1-c1ccccc1 (stereo unspecified) here
a: FALSE

q: Check the results log: what was the call for `CC(=O)O.CC(=O)O.O.[Fe]` ?
a: FALSE

q: Tell me the recorded outcome of this test for `Cc1cc(N2CCCCCC2)nc(N2CCN(CC(=O)Nc3ccc4c(ccn4Cc4ccccc4)c3)CC2)n1` .
a: FALSE

q: What outcome does the record of this test show for `COc1cc2c(c(Br)c1N)-c1cc(Br)c(N)cc1C2=O` ?
a: FALSE

q: Assay result, entry CCN(CC)c1ccc2cc(NC(=O)OCCNC(=O)CCNC(=O)[C@H](CC(C)C)NC(=O)C(C)(C)NC(=O)C(C)(C)NC(=O)[C@H](CC(C)C)NC(=O)CCNC(=O)C(C)(C)NC(=O)[C@H](CC(C)C)NC(=O)CCNC(=O)[C@@](C)(CC)NC(=O)[C@H](C)NC(=O)CCNC(=O)C(C)(C)NC(=O)[C@H](C)NC(=O)[C@@H]3CCCN3C(=O)[C@@](C)(CC)NC(=O)[C@H](Cc3ccccc3)NC(=O)C3CCCN3C(=O)C(C)(C)NC(=O)C3CCCN3C(=O)C(C)(C)NC(C)=O)c(=O)oc2c1 (stereo partly specified) — outcome?
a: TRUE

q: What did this assay record as the result for `CC1(C)CC[C@]2(C(=O)O)CC[C@]3(C)C(=CC[C@@H]4[C@@]5(C)C/C(=C/c6cccnc6)[C@H](O)C(C)(C)[C@@H]5CC[C@]43C)[C@@H]2C1` ?
a: TRUE

q: So what was the verdict on `CSc1cccc([N+](=O)[O-])c1` in this test?
a: FALSE

q: Fill in: this test's call for `O=C(O)c1ccccc1C(F)(F)F` is ___
a: FALSE

q: Status in this test for `CC1(C)[C@@H](NOCCCN)CC[C@]2(C)[C@H]3C(=O)C=C4[C@@H]5C[C@](C)(C(=O)O)CC[C@]5(C)CC[C@@]4(C)[C@]3(C)CC[C@@H]12` ?
a: TRUE

q: For `COc1ccc(/C=C(/C2=NCCN2)n2ccc3ccccc32)cc1` , what call appears in the results of this test?
a: FALSE

q: What did this assay record as the result for `Cc1cc(SC#N)ncn1` ?
a: FALSE

q: Recorded call for `C=C(C)[C@@H]1CC[C@]2(C(=O)O)CC[C@]3(C)[C@H](CC[C@@H]4[C@@]5(C)C/C(=C/c6ccco6)C(=O)C(C)(C)[C@@H]5CC[C@]43C)[C@@H]12` ?
a: TRUE
